molecular target: Caspase-2 (Homo sapiens); construct: mixing the compounds with the respective active caspases; purchased BioVision K152-100; experiment: Caspase-2 inhibitor screening assay (BioVision kit, VDVAD-AFC); type: biochemical; settings: read-out: % Inhibition at 100 uM Casp2
assay endpoint: inhibition at 100 µM (%)

>  <compound>
CC(C)(C)[C@H](NC(=O)[C@H](CC(=O)O)NC(=O)OCc1ccccc1)C(=O)N1CCCC1C(=O)N[C@H](/C=C/S(C)(=O)=O)CC(=O)O (stereo in doubt)

>  <endpoint unit>
%

>  <data value>
96

$$$$

P: CC(C)[C@H](NC(=O)[C@H](Cc1cn(C)c2ccccc12)NC(=O)[C@H](CC(=O)O)NC(=O)OCc1ccccc1)C(=O)N[C@H](/C=C/S(C)(=O)=O)CC(=O)O
Q: CC(C)[C@H](NC(=O)c1ccc2ccccc2n1)C(=O)N[C@H](/C=C/S(C)(=O)=O)CC(=O)O
Input: Response body: label of entry with the larger inhibition at 100 µM; valid values P , Q . Pick one; state its label.
Output: P

* * *

biological target: Caspase-2 (Homo sapiens, UniProt P42575); construct: mixing the compounds with the respective active caspases; purchased BioVision K152-100; assay: Caspase-2 inhibitor screening assay (BioVision kit, VDVAD-AFC); assay type: biochemical; settings: read-out: % Inhibition at 100 uM Casp2
Sequence (P42575 170-325 limits assumed): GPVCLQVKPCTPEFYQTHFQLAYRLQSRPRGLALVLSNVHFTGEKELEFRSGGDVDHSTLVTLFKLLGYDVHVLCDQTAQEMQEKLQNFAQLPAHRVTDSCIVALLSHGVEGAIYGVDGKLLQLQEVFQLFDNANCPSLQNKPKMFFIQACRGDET
Sequence (P42575 334-452 limits assumed): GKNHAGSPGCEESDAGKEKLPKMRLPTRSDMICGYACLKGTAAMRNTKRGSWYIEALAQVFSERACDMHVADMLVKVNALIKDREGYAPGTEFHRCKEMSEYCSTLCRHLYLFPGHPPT
assay endpoint: inhibition at 100 µM (%)

Worked examples, 5 molecules total:
>  <molecule>
CC(C)(C)[C@H](NC(=O)c1ccc2ccccc2n1)C(=O)N1CCC[C@@H]1C(=O)N[C@H](/C=C/S(C)(=O)=O)CC(=O)O

>  <inhibition at 100 µM, %>
10

$$$$
>  <molecule>
CC(C)(C)[C@H](NC(=O)c1ccc2ccccc2n1)C(=O)N1CC[C@@H]1C(=O)N[C@H](/C=C/S(C)(=O)=O)CC(=O)O

>  <inhibition at 100 µM, %>
6

$$$$
>  <molecule>
CS(=O)(=O)/C=C/[C@H](CC(=O)O)NC(=O)[C@H]1CCC(=O)N1

>  <inhibition at 100 µM, %>
0

$$$$
>  <molecule>
CS(=O)(=O)/C=C/[C@H](CC(=O)O)NC(=O)[C@H](CCC(=O)O)NC(=O)c1ccc2ccccc2n1

>  <inhibition at 100 µM, %>
0

$$$$
>  <molecule>
CCC(C)[C@H](NC(=O)[C@H](CCC(=O)O)NC(=O)[C@@H](NC(=O)OCc1ccccc1)C(C)C)C(=O)N[C@H](/C=C/S(C)(=O)=O)CC(=O)O (some centres unmarked)

>  <inhibition at 100 µM, %>
4

$$$$

I: CS(=O)(=O)/C=C/[C@H](CC(=O)O)NC(=O)[C@@H](N)CCC(=O)O
II: CC(C)[C@H](NC(=O)[C@@H](NC(=O)[C@H](CC(=O)O)NC(=O)OCc1ccccc1)c1ccccc1)C(=O)N[C@H](/C=C/S(C)(=O)=O)CCC(=O)O
III: CC(C)[C@H](NC(=O)OCc1ccccc1)C(=O)N[C@H](/C=C(\Cl)S(C)(=O)=O)CC(=O)O
IV: CC(C)(C)[C@@H](NC(=O)[C@H](CC(=O)O)NC(=O)OCc1ccccc1)C(=O)N1CC[C@@H]1C(=O)N[C@H](/C=C/S(C)(=O)=O)CC(=O)O
Input: Ascending by inhibition at 100 µM, please. Lab note: final answer is the ordered label list.
Output: III, II, I, IV
(III: 0%, II: 3%, I: 13%, IV: 86%)

* * *

target: Caspase-5 (Homo sapiens); construct: mixing the compounds with the respective active caspases; purchased BioVision K155-100; experiment: Caspase-5 inhibitor screening assay (BioVision kit, WEHD-AFC); format: biochemical; details: read-out: % Inhibition at 100 uM Casp5
Sequence (P51878 137-327 limits assumed): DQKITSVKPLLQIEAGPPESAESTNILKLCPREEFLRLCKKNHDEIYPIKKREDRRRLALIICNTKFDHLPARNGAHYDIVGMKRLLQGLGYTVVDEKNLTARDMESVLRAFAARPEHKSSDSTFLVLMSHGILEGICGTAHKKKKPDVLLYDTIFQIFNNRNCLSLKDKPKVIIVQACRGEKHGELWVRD
Sequence (P51878 347-434 limits assumed): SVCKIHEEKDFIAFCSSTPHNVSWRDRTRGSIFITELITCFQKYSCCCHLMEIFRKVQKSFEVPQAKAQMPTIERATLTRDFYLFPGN
Structures can show the parent of a compound that is named as a salt.
assay endpoint: inhibition at 100 µM (%)

Worked examples, 6 compounds total:
>  <compound>
CC(C)(C)[C@H](NC(=O)c1ccc2ncccc2c1)C(=O)N1CCCC1C(=O)N[C@H](/C=C/S(C)(=O)=O)CC(=O)O (stereo in doubt)

>  <endpoint unit>
%

>  <inhibition at 100 µM>
98

$$$$
>  <compound>
CCC(C)[C@H](NC(=O)[C@H](CCC(=O)O)NC(=O)[C@@H](NC(=O)OCc1ccccc1)C(C)C)C(=O)N[C@H](/C=C/S(C)(=O)=O)CC(=O)O (some centres unmarked)

>  <endpoint unit>
%

>  <inhibition at 100 µM>
81

$$$$
>  <compound>
CS(=O)(=O)/C=C/[C@H](CC(=O)O)NC(=O)[C@H](CCC(=O)O)NC(=O)c1ccc2ccccc2n1

>  <endpoint unit>
%

>  <inhibition at 100 µM>
1

$$$$
>  <compound>
CS(=O)(=O)/C(Cl)=C/[C@@H](N)CC(=O)O

>  <endpoint unit>
%

>  <inhibition at 100 µM>
1

$$$$
>  <compound>
CS(=O)(=O)/C=C/[C@H](CC(=O)O)NC(=O)[C@H]1CCC(=O)N1

>  <endpoint unit>
%

>  <inhibition at 100 µM>
0

$$$$
>  <compound>
CC(C)(C)[C@@H](NC(=O)[C@H](CC(=O)O)NC(=O)OCc1ccccc1)C(=O)N1CC[C@@H]1C(=O)N[C@H](/C=C/S(C)(=O)=O)CC(=O)O

>  <endpoint unit>
%

>  <inhibition at 100 µM>
77

$$$$

A: CC(C)(C)[C@H](NC(=O)[C@H](CC(=O)O)NC(=O)OCc1ccccc1)C(=O)N1CCCC1C(=O)N[C@H](/C=C/S(C)(=O)=O)CC(=O)O (stereo in doubt)
B: CC(C)[C@H](NC(=O)[C@@H](NC(=O)[C@H](CC(=O)O)NC(=O)OCc1ccccc1)c1ccccc1)C(=O)N[C@H](/C=C/S(C)(=O)=O)CCC(=O)O
Input: Response body: label of entry with the larger inhibition at 100 µM; valid values A , B . Pick one; state its label.
Output: A
(A: 91%, B: 0%)

A: CS(=O)(=O)/C=C/[C@H](CC(=O)O)NC(=O)C1CCCN1C(=O)[C@@H](NC(=O)[C@H](CC(=O)O)NC(=O)OCc1ccccc1)C1CC1 (stereo in doubt)
B: CC(C)(C)[C@H](NC(=O)c1ccc(N)c(Cl)c1)C(=O)N1CCCC1C(=O)N[C@H](/C=C/S(C)(=O)=O)CC(=O)O (stereo in doubt)
Input: Response body: label of entry with the larger inhibition at 100 µM; valid values A , B . Pick one; state its label.
Output: B
(B: 100%, A: 69%)

a: CS(=O)(=O)/C=C/[C@H](CC(=O)O)NC(=O)[C@H]1CCCN1C(=O)[C@@H](NC(=O)[C@H](CC(=O)O)NC(=O)OCc1ccccc1)c1ccccc1
b: CC(C)(C)OC(=O)CC[C@H](NC(=O)OC(C)(C)C)C(=O)N[C@H](/C=C/S(C)(=O)=O)CC(=O)OC(C)(C)C
Input: Hi! Which is lower in terms of inhibition at 100 µM, the first one a or the second one b ? Pick one; state its label.
Output: b

a: CC(C)[C@H](NC(=O)[C@H](Cc1cn(C)c2ccccc12)NC(=O)[C@H](CC(=O)O)NC(=O)OCc1ccccc1)C(=O)N[C@H](/C=C/S(C)(=O)=O)CC(=O)O
b: CCOC(=O)/C=C/[C@@H](N)CC(=O)O [Compound 44, Asp ethyl vinyl ester tosyl salt]
Input: Hi! Which is lower in terms of inhibition at 100 µM, the first one a or the second one b ? Pick one; state its label.
Output: b

* * *

molecular target: Caspase-1 (Homo sapiens, UniProt P29466); construct: mixing the compounds with the respective active caspases; purchased BioVision K151-100; test: Caspase-1 inhibitor screening assay (BioVision kit, YVAD-AFC); assay type: biochemical; details: read-out: % Inhibition at 10 uM Casp1
Sequence (P29466 120-297 limits assumed): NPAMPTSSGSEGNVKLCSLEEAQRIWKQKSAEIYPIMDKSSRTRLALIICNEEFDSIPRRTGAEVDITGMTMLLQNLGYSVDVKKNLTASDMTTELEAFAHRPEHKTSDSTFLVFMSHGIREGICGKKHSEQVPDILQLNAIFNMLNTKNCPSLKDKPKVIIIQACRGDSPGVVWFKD
Sequence (P29466 317-404 limits assumed): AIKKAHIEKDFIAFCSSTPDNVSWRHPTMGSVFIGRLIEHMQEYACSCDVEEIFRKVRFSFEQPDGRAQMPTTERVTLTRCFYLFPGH
Counter-ions that a name gives are not always drawn.
assay endpoint: inhibition at 10 µM (%)

Worked examples, 4 compounds total:
>  <compound>
CC(C)[C@H](NC(=O)[C@@H](NC(=O)[C@H](CC(=O)O)NC(=O)OCc1ccccc1)c1ccccc1)C(=O)N[C@H](/C=C/S(C)(=O)=O)CCC(=O)O [Compound 84, Z-Asp-Phg-Val-Glu methyl vinyl sulfone]

>  <target or system>
Caspase-1 (Homo sapiens, UniProt P29466)

>  <endpoint unit>
%

>  <data value>
0

$$$$
>  <compound>
CS(=O)(=O)/C=C/[C@H](CC(=O)O)NC(=O)[C@@H](N)CCC(=O)O [Compound 22, Glu-Asp methylsulfone]

>  <target or system>
Caspase-1 (Homo sapiens, UniProt P29466)

>  <endpoint unit>
%

>  <data value>
0

$$$$
>  <compound>
CC(C)(C)[C@H](NC(=O)c1ccc2ccccc2n1)C(=O)N1CC[C@@H]1C(=O)N[C@H](/C=C/S(C)(=O)=O)CC(=O)O [Compound 20]

>  <target or system>
Caspase-1 (Homo sapiens, UniProt P29466)

>  <endpoint unit>
%

>  <data value>
81

$$$$
>  <compound>
CS(=O)(=O)/C=C/[C@H](CC(=O)O)NC(=O)[C@H]1CCCN1C(=O)[C@@H](NC(=O)[C@H](CC(=O)O)NC(=O)OCc1ccccc1)c1ccccc1 [Compound 30]

>  <target or system>
Caspase-1 (Homo sapiens, UniProt P29466)

>  <endpoint unit>
%

>  <data value>
55

$$$$

I: CC(C)(C)[C@H](NC(=O)[C@H](CC(=O)O)NC(=O)OCc1ccccc1)C(=O)N1CCCC1C(=O)N[C@H](/C=C/S(C)(=O)=O)CC(=O)O (stereo in doubt) [Compound 26, Z-Asp-t-Leu-Pro-Asp-methyl vinyl sulfone]
II: CCOC(=O)/C=C/[C@@H](N)CC(=O)O [Compound 44, Asp ethyl vinyl ester tosyl salt]
III: CS(=O)(=O)/C=C/[C@H](CC(=O)O)NC(=O)[C@H]1CCC(=O)N1 [Compound 24]
IV: CC(C)[C@H](NC(=O)[C@H](CCC(=O)O)NC(=O)[C@H](Cc1c[nH]c2ccccc12)NC(=O)OCc1ccccc1)C(=O)N[C@H](/C=C/S(C)(=O)=O)CC(=O)O [Compound 40, Z-Trp-Glu-Val-Asp-methyl vinyl sulfone]
Input: Thanks in advance: please rank these 4 entries by inhibition at 10 µM, highest to lowest. Lab note: final answer is the ordered label list.
Output: IV, I, III, II
